Values were extracted from patent US12384768B2.

# target_or_system: human LPA1 (Homo sapiens, UniProt Q92633)
# Sequence (Q92633 whole entry): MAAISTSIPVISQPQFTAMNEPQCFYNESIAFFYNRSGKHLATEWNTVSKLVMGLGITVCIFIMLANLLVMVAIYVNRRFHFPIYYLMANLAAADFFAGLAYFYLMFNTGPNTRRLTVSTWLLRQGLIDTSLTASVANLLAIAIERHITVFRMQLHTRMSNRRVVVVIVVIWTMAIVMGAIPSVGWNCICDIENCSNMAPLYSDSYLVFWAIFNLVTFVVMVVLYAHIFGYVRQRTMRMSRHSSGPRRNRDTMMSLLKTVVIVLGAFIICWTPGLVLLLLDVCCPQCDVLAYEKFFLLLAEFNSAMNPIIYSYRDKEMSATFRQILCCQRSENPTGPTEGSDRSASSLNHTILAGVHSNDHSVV
# assay_info: LPA1 functional antagonist assay (calcium flux)
# test_parameters: CHO cells overexpressing human LPA1; inhibition of calcium flux induced by 10 nM LPA; read-out: hLPA1 IC50
pIC50: −log10 of the molar value.
measurement_name: pIC50

Below are worked cases with known answers.
compound="Cc1noc(-c2ccc(O[C@@H]3COC[C@H](C(=O)O)C3)cc2)c1COC(=O)N(C)C1CCCC1 (racemic) [Example 2]" value_measured=6.84
compound="Cc1noc(-c2ccc(OC3CC(C(=O)O)CC4CC43)cc2)c1COC(=O)N(C)C1CCCC1 (racemic) [Example 11]" value_measured=7.19

1 = Cc1noc(-c2ccc(O[C@@H]3COC[C@H](C(=O)O)C3)cc2)c1COC(=O)N(C)CCC(C)C [Example 4]
2 = CCCCN(C)C(=O)OCc1c(C)noc1-c1ccc(OC2CCCC3C(C(=O)O)C23)cc1 (centres unmarked) [Example 18]
Lab log: flag the item ( 1 or 2 ) with the smaller pIC50 figure. State your choice using its label. 2

a = Cc1noc(-c2ccc(OC3CCCC4C(C(=O)O)C34)cc2)c1COC(=O)N(C)C1CCCC1 (racemic) [Example 17]
b = Cc1noc(-c2ccc(O[C@H]3CCO[C@@H](C(=O)O)C3)cc2)c1COC(=O)N(C)CCC(C)C (racemic) [Example 7]
# min-compare on pIC50 between a and b Record your answer as the label of the chosen record. a

P = Cc1noc(-c2ccc(O[C@@H]3C[C@H](C(=O)O)C[C@H]4C[C@H]43)cc2)c1COC(=O)N(C)C1CCCC1 (racemic) [Example 12]
Q = Cc1noc(-c2ccc(O[C@H]3CCO[C@H](C(=O)O)C3)cc2)c1COC(=O)N(C)CCC(C)C [Example 8]
R = Cc1noc(-c2ccc(O[C@@H]3CCO[C@H](C(=O)O)C3)cc2)c1COC(=O)N(C)CCC(C)C (single isomer, unassigned) [Example 9]
S = Cc1noc(-c2ccc(OC3CC4C(C3)C4C(=O)O)cc2)c1COC(=O)N(C)CC1CCC1 (racemic) [Example 15]
T = CCCCN(C)C(=O)OCc1c(C)noc1-c1ccc(O[C@@H]2C[C@H](C(=O)O)C[C@@H]3C[C@@H]32)cn1 (racemic) [Example 13]
List from greatest to least pIC50. Reply: labels, ordered per the request. T, R, P, S, Q

a = Cc1noc(-c2ccc(O[C@H]3CCO[C@@H](C(=O)O)C3)cc2)c1COC(=O)N(C)C1CCCC1 (racemic) [Example 6]
b = Cc1noc(-c2ccc(OC3CCC4C(C(=O)O)C34)cc2)c1COC(=O)N(C)C1CCCC1 (racemic) [Example 14]
c = Cc1noc(-c2ccc(OC3CCCC4C(C(=O)O)C34)cc2)c1COC(=O)N(C)CC1CCC1 (centres unmarked) [Example 19]
d = Cc1noc(-c2ccc(O[C@H]3CCO[C@H](C(=O)O)C3)cc2)c1COC(=O)N(C)C1CCCC1 (racemic) [Example 5]
I would appreciate it if you could sort these 4 compounds by pIC50, starting from the smallest number. # list labels per requested ordering c, d, a, b
(c: 5.87, d: 6.25, a: 6.54, b: 7.32)

a = Cc1noc(-c2ccc(O[C@@H]3COC[C@@H](C(=O)O)C3)cc2)c1COC(=O)N(C)CCC(C)C (racemic) [Example 3]
b = Cc1noc(-c2ccc(OC3CCCC4C(C(=O)O)C34)cc2)c1COC(=O)N(C)CC1CC1 (centres unmarked) [Example 20]
Identify the item whose pIC50 is the smaller number: a or b // respond with label for picked entry b

P = CCCCN(C)C(=O)OCc1c(C)noc1-c1ccc(OC2CC3C(C2)C3C(=O)O)cc1 (centres unmarked) [Example 16]
Q = Cc1noc(-c2ccc(O[C@H]3COC[C@H](C(=O)O)C3)cc2)c1COC(=O)N(C)C1CCCC1 (racemic) [Example 1]
In terms of reported pIC50, does P or Q have the smaller number? // respond with label for picked entry P
